Tested on: Enterococcus faecium
Assay: Antibacterial activity against linezolid-resistant Enterococcus faecium 03B1075 by broth microdilution method
Format: functional
I'd be grateful if you could share measured MIC for these entries.

Compound	MIC
O=C(N[C@H](CO)[C@H](O)c1ccc([N+](=O)[O-])cc1)C(Cl)Cl [CHLORAMPHENICOL]	32 µg/mL
CN[C@H](CC(C)C)C(=O)N[C@H]1C(=O)N[C@@H](CC(N)=O)C(=O)N[C@H]2C(=O)N[C@H]3C(=O)N[C@H](C(=O)N[C@H](C(=O)O)c4cc(O)cc(O)c4-c4cc3ccc4O)[C@H](O)c3ccc(c(Cl)c3)Oc3cc2cc(c3O[C@@H]2O[C@H](CO)[C@@H](O)[C@H](O)[C@H]2O[C@H]2C[C@](C)(N)[C@H](O)[C@H](C)O2)Oc2ccc(cc2Cl)[C@H]1O [VANCOMYCIN]	> 32 µg/mL
CC(=O)NC[C@H]1CN(c2ccc(N3CCOCC3)c(F)c2)C(=O)O1 [LINEZOLID]	32 µg/mL

Now for the compound whose MIC we want.
**Q:** Item C/C(=C\c1cc(F)c(OC[C@H](F)C2CC2)cc1F)C(=O)N[C@@H]1[C@H](O)[C@@H](O)[C@H]2OCO[C@H]2[C@@H]1O with Enterococcus faecium - MIC?
**A:** 4 µg/mL
